Exercise: for every item that follows, state its recorded MFI.
TEST_TARGET: T1, human GARP (glycoprotein A repetitions predominant, LRRC32) on the cell surface (human, UniProt Q14392 20-662)
T1 construct: whole, on cells; also called hGARP; free GARP
T1 sequence (looked up): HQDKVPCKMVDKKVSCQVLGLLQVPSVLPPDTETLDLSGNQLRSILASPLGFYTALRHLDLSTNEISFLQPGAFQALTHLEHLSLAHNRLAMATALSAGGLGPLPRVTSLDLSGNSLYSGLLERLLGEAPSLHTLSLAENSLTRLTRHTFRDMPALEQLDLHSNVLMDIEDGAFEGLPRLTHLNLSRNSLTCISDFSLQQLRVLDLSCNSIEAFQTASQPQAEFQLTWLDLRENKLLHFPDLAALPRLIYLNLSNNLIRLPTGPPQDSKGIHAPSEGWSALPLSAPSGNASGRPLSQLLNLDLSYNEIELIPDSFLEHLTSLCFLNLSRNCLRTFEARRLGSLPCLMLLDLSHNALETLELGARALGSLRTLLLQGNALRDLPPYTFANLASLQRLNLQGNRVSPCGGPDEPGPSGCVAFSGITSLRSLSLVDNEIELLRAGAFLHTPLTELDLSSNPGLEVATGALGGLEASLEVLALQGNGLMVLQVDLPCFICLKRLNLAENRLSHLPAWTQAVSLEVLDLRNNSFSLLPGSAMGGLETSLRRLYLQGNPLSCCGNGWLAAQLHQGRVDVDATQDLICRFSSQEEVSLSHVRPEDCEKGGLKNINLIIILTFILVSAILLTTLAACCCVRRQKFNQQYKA
PROTOCOL_DESCRIPTION: FACS, Ag(+) cells, culture supernatant, 5 ug/ml
Your answer is read as MFI, so omit the unit and give the number.

QUERY: Report MFI for huPIIO-1VH2VL3 (antibody, V domains shown, Humanized IgG from Expi293, tested as culture supernatant; also called H2L3; HuPIIO-1VH2/L3) VH: QVQLQESGPGLVKPSQTLSLTCTVSGYSITSDYAWNWIRQFPGNKLEWMGYISYSGSTSYTPSLKSRITISRDTSKNHFFLKLSSVTAADTAVYYCAKSGGDYYGSSSYWYFDVWGQGTMVTVSS VL: DIVLTQSPSSLAVSAGERVTMSCKSSQSLLNSRSQKNYLAWYQQKPGQPPKLLIYGASTRGSGVPDRFSGSGSGTDFTLTISSVQAEDVAVYYCQNDHSYPFTFGSGTKLEIKR
RESULT: 26.5

QUERY: Report MFI for huPIIO-1VH2VL2 (antibody, V domains shown, Humanized IgG from Expi293, tested as culture supernatant; also called H2L2; HuPIIO-1VH2/L2) VH: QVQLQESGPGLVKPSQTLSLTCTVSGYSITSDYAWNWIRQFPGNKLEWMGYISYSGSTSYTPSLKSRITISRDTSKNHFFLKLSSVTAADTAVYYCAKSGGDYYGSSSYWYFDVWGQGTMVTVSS VL: DIVLTQSPSSLAVSLGERVTMNCKSSQSLLNSRSQKNYLAWYQQKPGQPPKLLIYGASTRGSGVPDRFSGSGSGTDFTLTISSVQAEDVAVYYCQNDHSYPFTFGQGTKLEIKR
RESULT: 26.2

QUERY: Report MFI for huPIIO-1VH4VL1 (antibody, V domains shown, Humanized IgG from Expi293, tested as culture supernatant; also called H4L1; HuPIIO-1VH4/L1) VH: DVQLQESGPGLVKPSQTLSLTCTVSGYSITSDYAWNWIRQFPGNKLEWMGYISYSGSTSYTPSLKSRITISRDTSKNHFFLQLSSVTAEDTATYYCAKSGGDYYGSSSYWYFDVWGQGTTVTVSS VL: DIVLTQSPSSLAVSLGERATMNCKSSQSLLNSRSQKNYLAWYQQKPGQPPKLLIYGASTRGSGVPDRFSGSGSGTDFTLTISSLQAEDVAVYYCQNDHSYPFTFGQGTKLEIKR
RESULT: 27.3

QUERY: Report MFI for huPIIO-1VH1VL1 (antibody, V domains shown, Humanized 4D3/PIIO-1 IgG made in Expi293 cells; also called H1L1; HuPIIO-1VH1/L1) VH: QVQLQESGPGLVKPSQTLSLTCTVSGYSITSDYAWNWIRQFPGNKLEWMGYISYSGSTSYTPSLKSRVTISRDTSKNHFSLKLSSVTAADTAVYYCAKSGGDYYGSSSYWYFDVWGQGTMVTVSS VL: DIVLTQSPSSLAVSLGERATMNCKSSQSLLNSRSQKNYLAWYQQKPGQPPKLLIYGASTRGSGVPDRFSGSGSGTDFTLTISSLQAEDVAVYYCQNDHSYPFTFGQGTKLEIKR
RESULT: 26.4
